Cited source for all entries: patent US20220119518A1

Assayed system: T1, Antigen CD66c (CEACAM6; Sino Biological, Inc.) (UniProt P40199 35-320)
T1 construct: Bought antigen, coated on the ELISA plate; construct not described; also called CECACAM6 (CD66c) antigen; CD66c antigen
T1 sequence (looked up): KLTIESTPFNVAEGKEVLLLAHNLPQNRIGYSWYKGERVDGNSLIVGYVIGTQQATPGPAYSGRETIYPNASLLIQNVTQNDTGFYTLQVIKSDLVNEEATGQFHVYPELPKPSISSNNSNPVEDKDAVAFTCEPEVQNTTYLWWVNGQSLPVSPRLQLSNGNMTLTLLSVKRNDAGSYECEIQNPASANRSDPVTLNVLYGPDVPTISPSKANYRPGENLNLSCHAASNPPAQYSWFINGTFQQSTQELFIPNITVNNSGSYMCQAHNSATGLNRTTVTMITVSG
Measurement notes: ELISA, CEACAM6 coated 100 ng/well, antibody at 0.17 ng/ml
Readout: OD 450 nm
Note: state the figure and append the unit.

Example cases with answers are listed next.
recombinant humanized anti-CD66c antibody Protein ID 3007 (Vk7 + VH6) (antibody, human IgG1, V domains shown, also called hu 3007; #43) VH: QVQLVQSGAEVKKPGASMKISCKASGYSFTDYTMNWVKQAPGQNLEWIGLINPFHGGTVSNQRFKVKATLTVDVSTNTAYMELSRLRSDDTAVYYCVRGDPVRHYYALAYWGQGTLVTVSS VL: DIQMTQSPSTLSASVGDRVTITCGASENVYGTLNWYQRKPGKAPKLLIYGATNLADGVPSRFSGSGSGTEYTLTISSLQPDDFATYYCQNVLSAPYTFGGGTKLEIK
0.53 OD 450 nm
recombinant humanized anti-CD66c antibody Protein ID 2938 (Vk5 + VH7) (antibody, human IgG1, V domains shown, also called hu 2938) VH: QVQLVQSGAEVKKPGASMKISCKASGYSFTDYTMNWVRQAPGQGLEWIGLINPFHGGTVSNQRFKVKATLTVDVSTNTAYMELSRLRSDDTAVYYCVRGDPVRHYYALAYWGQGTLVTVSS VL: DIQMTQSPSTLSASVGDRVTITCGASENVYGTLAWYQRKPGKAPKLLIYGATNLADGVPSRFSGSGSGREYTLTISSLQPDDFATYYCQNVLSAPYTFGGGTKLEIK
0.3 OD 450 nm

Next item in the queue.
Exam item: I am curious: what OD 450 nm value has been reported for recombinant humanized anti-CD66c antibody Protein ID 3043 (Vk8 + VH6) (antibody, V domains shown, also called hu 3043; #71) VH: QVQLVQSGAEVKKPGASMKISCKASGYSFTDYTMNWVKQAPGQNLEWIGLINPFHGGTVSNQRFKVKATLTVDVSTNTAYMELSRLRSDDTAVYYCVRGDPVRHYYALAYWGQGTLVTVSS VL: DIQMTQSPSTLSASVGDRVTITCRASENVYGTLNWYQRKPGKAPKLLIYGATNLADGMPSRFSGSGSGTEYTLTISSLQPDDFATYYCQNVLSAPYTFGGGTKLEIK ?
Marked response: 0.41 OD 450 nm
